Listed next: entries and their corresponding inhibition.
- target-of-assay: Rac GTPase-activating protein 1 (Homo sapiens) (UniProt Q9H0H5)
- Sequence (Q9H0H5 whole entry, looked up): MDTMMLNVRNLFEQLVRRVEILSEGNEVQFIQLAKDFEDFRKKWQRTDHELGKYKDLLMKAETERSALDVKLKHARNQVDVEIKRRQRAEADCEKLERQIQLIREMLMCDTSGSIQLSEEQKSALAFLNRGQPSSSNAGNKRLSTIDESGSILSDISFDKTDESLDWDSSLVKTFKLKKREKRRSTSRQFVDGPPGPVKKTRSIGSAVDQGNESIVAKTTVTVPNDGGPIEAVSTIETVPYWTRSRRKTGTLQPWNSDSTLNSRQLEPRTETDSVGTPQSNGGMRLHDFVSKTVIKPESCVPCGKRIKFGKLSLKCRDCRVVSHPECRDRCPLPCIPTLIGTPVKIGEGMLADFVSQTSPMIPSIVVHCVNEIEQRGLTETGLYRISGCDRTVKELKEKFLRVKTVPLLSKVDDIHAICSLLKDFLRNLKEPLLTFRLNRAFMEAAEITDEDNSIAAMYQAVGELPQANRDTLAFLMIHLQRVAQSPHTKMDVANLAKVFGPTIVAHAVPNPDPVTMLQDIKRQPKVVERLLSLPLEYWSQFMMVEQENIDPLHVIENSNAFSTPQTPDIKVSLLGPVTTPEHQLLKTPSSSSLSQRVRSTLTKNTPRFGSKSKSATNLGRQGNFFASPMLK
- assay-remarks: blockers of MgcRacGAP-driven Rac1 GTP hydrolysis – biochemical, ADP Hunter fluorescence, primary and confirmatory, confirmation (AID 624330);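 also: fluorescence reports GDP produced by GAP-driven GTP hydrolysis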
- setup-conditions: MgcRacGAP-stimulated Rac1 GTP hydrolysis, at 30 µM, active compounds read high, GST-tagged Rac1 F28L mutant substrate
In all, about 340,000 compounds went through this assay and about 2,100 (0.62%) were called active. The list is a sample of the results. Measured potencies and affinities stand elsewhere.
Kindly provide the numeric value in % only, without the unit symbol.

These solved cases illustrate the format of a correct answer.
# molecule, target-of-assay, unit-text, inhibition
measured = [
    ("CC(C)c1ccc(NC2CCCN(C(=O)c3ccccc3-c3ncc[nH]3)C2)cc1 (stereo unspecified)", "Rac GTPase-activating protein 1 (Homo sapiens) (UniProt Q9H0H5)", "%", 8.99),
    ("Cc1c(F)cccc1NS(=O)(=O)c1ccc2c(c1)n(C)c(=O)c(=O)n2C", "Rac GTPase-activating protein 1 (Homo sapiens) (UniProt Q9H0H5)", "%", -0.09),
    ("COc1ccc(C(=O)N2CCN(C(=O)CC(C)C)CC2)cc1OC", "Rac GTPase-activating protein 1 (Homo sapiens) (UniProt Q9H0H5)", "%", -1.21),
    ("CCc1cc2c(=O)c(-c3cscn3)coc2cc1O", "Rac GTPase-activating protein 1 (Homo sapiens) (UniProt Q9H0H5)", "%", -2.61),
]

Q: Determine from records and report inhibition for CCc1cc(C(=O)Cc2ccccn2)c(O)cc1O
A: -7.09

Q: In one line, give reported inhibition of the entry CCc1cc(/C(Cc2ccccn2)=N\Nc2ccccc2)c(O)cc1O .
A: 5.83

---

- target-of-assay: Rac GTPase-activating protein 1 (Homo sapiens)
- assay-remarks: blockers of MgcRacGAP-driven Rac1 GTP hydrolysis – biochemical, ADP Hunter fluorescence, primary and confirmatory, confirmation (AID 624330);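 also: fluorescence reports GDP produced by GAP-driven GTP hydrolysis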
- setup-conditions: MgcRacGAP-stimulated Rac1 GTP hydrolysis, at 30 µM, active compounds read high, GST-tagged Rac1 F28L mutant substrate
In all, about 340,000 compounds went through this assay and about 2,100 (0.62%) were called active. Only a sample is shown. Results with a measured potency or affinity are listed apart.
assay-endpoint: inhibition (%)
Supply the numeric figure in %, leaving out any unit text.

Example entries begin here.
# compound, result-number
records = [
    ("COc1ccc(C(C)=O)cc1CN1C(=O)NC2(CCCCCC2)C1=O", -0.57),
    ("CCOC(=O)C(=O)/C(=C\\N(C)C)c1onc(-c2c(F)cccc2Cl)c1C(=O)OC", 4.69),
    ("CC(C)CC1NC(=O)N(CC(=O)Nc2ccc3c(c2)CCC3)C1=O (stereo unspecified)", 9.25),
]

Q: Fill in: inhibition on Rac GTPase-activating protein 1 (Homo sapiens), entry O=S(=O)(CCc1nc2ccccc2s1)c1ccc2ccccc2c1
A: 18.8

Q: Send back Rac GTPase-activating protein 1 (Homo sapiens) inhibition of COc1ccc2cc(CN(C)C(=O)CN3C(=O)NC4(CCCC4)C3=O)ccc2c1 only.
A: 20.2

Q: Print Rac GTPase-activating protein 1 (Homo sapiens) inhibition for CCc1ccccc1NC(=O)c1ccc(NCCc2ccccc2)c([N+](=O)[O-])c1 .
A: 10.6

Q: Quote inhibition with test system Rac GTPase-activating protein 1 (Homo sapiens) for O=C(CCCC(=O)c1ccccc1)Nc1ccc(F)cc1
A: 4.81

Q: Param request: inhibition | system Rac GTPase-activating protein 1 (Homo sapiens) | item C/C(=N\O)C(C)(C)Nc1ccc(Cl)cc1
A: 11.3

Q: Report the value of inhibition obtained on Rac GTPase-activating protein 1 (Homo sapiens) for CS(=O)(=O)N(CC(=O)N/N=C/c1cccs1)c1cccc(Cl)c1Cl .
A: 11.9

Q: Write inhibition of O=C(N/N=C/c1ccc(N2CCOCC2)s1)c1ccccc1Br ; system used: Rac GTPase-activating protein 1 (Homo sapiens)
A: 10

Q: Look up and report measured inhibition (Rac GTPase-activating protein 1 (Homo sapiens)) for the following compound: COC(=O)c1sccc1NC(=O)CN(C)NS(=O)(=O)c1ccc([N+](=O)[O-])cc1
A: -4.11
